B1: SMARCE1 (parent)
chain: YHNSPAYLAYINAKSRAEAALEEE

- Variants of: B1
- procedure.details: protein stability index of a GFP-peptide fusion (GPS, HEK-293T) (PSI 1-6); higher = more stable;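 further: lentivirally expressed fusions sorted by FACS into six bins by GFP to DsRed ratio, PSI derived from sequencing read proportions per bin multiplied by bin number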
- test.parameters: c terminus: a fixed tail appended
measured.property: protein stability index
Lab note: record just the number, no unit beside it.

Some variants with known protein stability index results, for comparison:
- construct.sequence: "YHNKPAYLAYINAKSRAEAALEEE"
  measured.property: "protein stability index"
  test.value: 1.77
- construct.sequence: "YHNSPAYLAYINAKSRPEAALEEE"
  measured.property: "protein stability index"
  test.value: 2.45
- construct.sequence: "YHNSPAYLAYINAKSRANAALEEE"
  measured.property: "protein stability index"
  test.value: 2.21

In plain terms, `YQNSPAYLAYINAKSRAEAALEEE` has a documented protein stability index of 1.7

Noted for `YHNSGAYLAYINAKSRAEAALEEE` : its protein stability index reads 3.04

The value of protein stability index measured for the variant `YHNGPAYLAYINAKSRAEAALEEE` turned out to be 2.45

Measured protein stability index, `YHNSPAYLAYINAKSRAEAALEEG` : 1.95

Documented protein stability index of `YHNSPAYLAYINAKSRATAALEEE` : 1.82

Lab note: measured protein stability index of `YHNSPEYLAYINAKSRAEAALEEE` was 2.58

For record `YHNSPAYKAYINAKSRAEAALEEE` the listed protein stability index is 3.83

Entry under test: `YHNSPYYLAYINAKSRAEAALEEE` . Its protein stability index was 2.23
